# measurement-description: Kinetic solubility assay (CLND), pH 6.8
# Type: physicochemical
# reported-conditions: aqueous buffer, kinetic from dmso stock; potassium phosphate buffer pH 6.8, 2% DMSO, 24 hours at ambient temperature
Structures can show the parent of a compound that is named as a salt.
For each entry below, report its solubility kinetic at 24 h value.
Give bare numbers, in µg/mL.

The following molecules have reported results that may help.
CC[C@H](C)Oc1cc2nc(C34COC(C)(C3)C4)cn2cc1C(=O)Nc1cccn(C2CC2)c1=O ... 47
CC(C)Oc1cc2nc(C34COC(C)(C3)C4)cn2cc1C(=O)Nc1cccn(C)c1=O [Comparator 1D, reference compound] ... 63.2
CC(C)Oc1c(C(=O)Nc2cccn(C3CC3)c2=O)cn2cc([C@]34CC[C@](C)(C3)OC4)nc2c1F (single isomer, unassigned) ... 53.6
CC(C)Oc1nc2nc(C34CCC(C)(CC3)OC4)cn2cc1C(=O)Nc1cccn(C)c1=O [Comparator 6D, reference compound] ... 11.2
CC12CCC(c3cn4cc(C(=O)Nc5cccn(C6CC6)c5=O)c(OC5CCC5)cc4n3)(CO1)C2 (stereo not shown) ... 61.9

Would you mind listing solubility kinetic at 24 h for each of the following molecules?
1. C[C@@H](Oc1cc2nc(C34COC(C)(C3)C4)cn2cc1C(=O)Nc1cccn(C2C[C@H]2F)c1=O)C(F)F (stereo partly shown)
2. CC(C)Oc1cc2nc([C@@]34CC[C@@H](C3)OC4)cn2cc1C(=O)Nc1cccn(C2CC2)c1=O (single isomer, unassigned)
3. CC(C)Oc1cc2nc([C@@]34CC[C@@](C)(C3)OC4)cn2cc1C(=O)Nc1cccn(C)c1=O (single isomer, unassigned) [Comparator 3D, reference compound]
4. CC[C@H](C)Oc1nc2nc(C34COC(C)(C3)C4)cn2cc1C(=O)Nc1cccn(C2CC2)c1=O (single isomer, unassigned)

Output:
1: 73.2; 2: 68.9; 3: 49.3; 4: 49.6

Would you mind listing solubility kinetic at 24 h for each of the following molecules?
1. CC12CC(c3cn4cc(C(=O)Nc5cccn([C@H]6C[C@H]6F)c5=O)c(OC5CCC5)cc4n3)(CO1)C2 (single isomer, unassigned)
2. O=C(Nc1cccn([C@H]2C[C@H]2F)c1=O)c1cn2cc(C34COC(C3)C4)nc2nc1OC1CCC1 (single isomer, unassigned)
3. CC(C)Oc1cc2nc(C34COC(C)(C3)C4)cn2cc1C(=O)Nc1cccn([C@H]2C[C@H]2C)c1=O
4. CC[C@@H](C)Oc1nc2nc([C@@]34CC[C@@](C)(C3)OC4)cn2cc1C(=O)Nc1cccn(C2CC2)c1=O
5. C[C@H](CF)Oc1cc2nc(C34COC(C)(C3)C4)cn2cc1C(=O)Nc1cccn(C2CC2)c1=O
6. CC(C)Oc1nc2nc([C@@]34CC[C@@](CF)(C3)OC4)cn2cc1C(=O)Nc1cccn(C2CC2)c1=O (single isomer, unassigned)

Output:
1: 22.6; 2: 19.2; 3: 38.6; 4: 63.2; 5: 60.2; 6: 9

Would you mind listing solubility kinetic at 24 h for each of the following molecules?
1. CC(C)Oc1nc2nc([C@]34CC[C@](C)(C3)OC4)cn2cc1C(=O)Nc1cccn(C2CC2)c1=O (single isomer, unassigned)
2. CC(C)Oc1c(C(=O)Nc2cccn([C@H]3C[C@H]3F)c2=O)cn2cc(C34COC(C)(C3)C4)nc2c1F (single isomer, unassigned)
3. CC(C)Oc1cc2nc([C@]34CC[C@](C)(C3)OC4)cn2cc1C(=O)Nc1cccn(C2CC2F)c1=O (mixture of isomers)
4. CC(C)Oc1nc2nc(C34COC(C)(C3)C4)cn2cc1C(=O)Nc1cccn(C2CC2(F)F)c1=O (stereo not shown)
5. CC(C)Oc1nc2nc([C@]34CC[C@](C)(C3)OC4)cn2cc1C(=O)Nc1cccn([C@H]2C[C@H]2C)c1=O (single isomer, unassigned) [Example 186, trifluoroacetate]
6. CC(C)Oc1nc2nc(C34CCC(CF)(C3)OC4)cn2cc1C(=O)Nc1cccn(C2CC2)c1=O (stereo not shown)

Output:
1: 20.3; 2: 62.8; 3: 27.6; 4: 37.7; 5: 64.7; 6: 6.8

Would you mind listing solubility kinetic at 24 h for each of the following molecules?
1. COCC12CC(c3cn4cc(C(=O)Nc5cccn([C@H]6C[C@H]6F)c5=O)c(OC(C)C)nc4n3)(CO1)C2
2. CC(C)Oc1nc2nc(C34COC(C)(C3)C4)cn2cc1C(=O)Nc1cccn(C2C[C@]2(C)C(F)F)c1=O (stereo partly shown)
3. CC(C)Oc1nc2nc(C34COC(C3)C4)cn2cc1C(=O)Nc1cccn([C@@H]2C[C@@H]2F)c1=O (single isomer, unassigned) [Example 88]
4. C[C@@]12CC[C@@](c3cn4cc(C(=O)Nc5cccn(C6CC6)c5=O)c(OC5CCC5)cc4n3)(CO1)C2 (single isomer, unassigned)

Output:
1: 66; 2: 34.4; 3: 20.7; 4: 66.7

Value source: patent US20240116922A1
